test: Protein binding in mouse plasma; type: ADME, cell-free; conditions: read-out: PPB (converted)
// values below are reported fraction unbound
observable: fraction unbound

[[record]]
structurestring = "Cc1ccc(-n2ccc(C(F)(F)F)c2COc2c(F)cc(CCC(=O)O)cc2F)cc1"
reportedmeasurement = 0.0041

[[record]]
structurestring = "CCc1ccc(-n2ccc(C(F)(F)F)c2COc2ccc(CCC(=O)O)c(F)c2F)cc1"
reportedmeasurement = 0.0014

[[record]]
structurestring = "O=C(O)CCc1cc(F)c(OCc2c(C(F)(F)F)ccn2-c2ccc(Cl)cc2)c(F)c1"
reportedmeasurement = 0.0037


----------
experiment: Clearance in mouse at 1.15 mg/kg, iv by LC-MS/MS analysis; format: ADME, organism-based; conditions: in vivo
observable: clearance (mL/min/kg)

[[record]]
structurestring = "O=C(O)CCc1cc(F)c(OCc2c(C(F)(F)F)ccn2-c2ccc(Cl)cc2)c(F)c1"
reportedmeasurement = 4.9

